- MEASURED TARGET: HIV-1 Env of isolate MGRM-A-004 (HIV-1)
- METHOD DESCRIPTION: cell-based or functional assay
The entries below come with measured IC50 (µg/mL), pseudovirus neutralization values attached.

BINDER	IC50 (µg/mL), pseudovirus neutralization
PGT-125 (antibody, V domains shown) VH: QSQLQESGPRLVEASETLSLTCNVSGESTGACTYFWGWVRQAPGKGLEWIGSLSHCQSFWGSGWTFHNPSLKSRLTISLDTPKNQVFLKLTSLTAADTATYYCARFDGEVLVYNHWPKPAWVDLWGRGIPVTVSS VL: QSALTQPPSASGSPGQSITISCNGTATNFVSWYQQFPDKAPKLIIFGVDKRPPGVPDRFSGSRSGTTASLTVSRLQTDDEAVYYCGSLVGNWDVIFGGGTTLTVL	> 50 µg/mL
PGT-126 (antibody, V domains shown) VH: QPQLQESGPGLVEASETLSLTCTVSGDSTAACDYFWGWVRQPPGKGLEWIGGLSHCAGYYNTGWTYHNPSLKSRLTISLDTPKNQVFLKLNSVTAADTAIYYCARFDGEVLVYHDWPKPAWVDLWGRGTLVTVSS VL: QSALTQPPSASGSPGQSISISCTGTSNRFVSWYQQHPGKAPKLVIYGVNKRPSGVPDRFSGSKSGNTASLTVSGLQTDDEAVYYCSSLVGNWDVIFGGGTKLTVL	> 50 µg/mL
PGT-127 (antibody, V domains shown) VH: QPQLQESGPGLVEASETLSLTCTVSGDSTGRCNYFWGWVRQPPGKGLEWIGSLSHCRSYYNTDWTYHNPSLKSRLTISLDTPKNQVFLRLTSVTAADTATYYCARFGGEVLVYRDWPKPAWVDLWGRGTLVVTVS VL: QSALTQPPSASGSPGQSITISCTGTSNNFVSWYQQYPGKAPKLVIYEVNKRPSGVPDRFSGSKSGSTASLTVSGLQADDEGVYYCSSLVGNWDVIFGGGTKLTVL	> 50 µg/mL

Ref: patent US20200024330A1
